Target: T1, recombinant cynomolgus monkey CD112R antigen (cynomolgus monkey, UniProt A0A2K5WVV8 1-322)
T1 construct: bought
T1 sequence: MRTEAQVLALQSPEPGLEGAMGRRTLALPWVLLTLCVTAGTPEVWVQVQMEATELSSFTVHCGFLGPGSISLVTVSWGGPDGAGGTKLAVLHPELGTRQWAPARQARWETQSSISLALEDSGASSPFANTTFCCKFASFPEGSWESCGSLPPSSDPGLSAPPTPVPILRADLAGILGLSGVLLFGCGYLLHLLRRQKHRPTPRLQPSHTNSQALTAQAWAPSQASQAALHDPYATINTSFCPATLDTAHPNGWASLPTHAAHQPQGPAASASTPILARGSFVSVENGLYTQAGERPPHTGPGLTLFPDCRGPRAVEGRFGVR
Test: ELISA, coated cynomolgus monkey CD112R; EC50 Ref/EC50 antibody
Endpoint label: Relative activity (%)
// return numeric value only (unit: %, not printed)

Record excerpt, results attached:
Chi-46 (antibody, V domains shown, chimeric) VH: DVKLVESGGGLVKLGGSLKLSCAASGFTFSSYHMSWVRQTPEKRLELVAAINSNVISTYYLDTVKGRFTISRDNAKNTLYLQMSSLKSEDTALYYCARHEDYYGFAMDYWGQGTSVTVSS VL: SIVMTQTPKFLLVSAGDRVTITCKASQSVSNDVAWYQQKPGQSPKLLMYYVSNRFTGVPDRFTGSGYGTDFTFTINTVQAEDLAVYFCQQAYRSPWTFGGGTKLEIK	107
Chi-71 (antibody, V domains shown, chimeric) VH: DVQLVESGGGLVKLGGSLKLSCVASGFTFSSYHMSWIRQTPEKRLELVAAINSNDINTYYLDTVKGRFTISRDIAKNTLHLQMSSLKSEDTALYYCARHEDYYGFAMDYWGQGTSVTVSS VL: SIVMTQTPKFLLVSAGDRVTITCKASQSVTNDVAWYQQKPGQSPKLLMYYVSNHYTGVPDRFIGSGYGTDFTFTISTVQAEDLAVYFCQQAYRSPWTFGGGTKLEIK	94.8

*Q* Would you kindly share the measured Relative activity (%) for Chi-54 (antibody, V domains shown, chimeric) VH: DVKLVESGGGLVKLGGSLKLSCAASGFTFSSYHMSWIRQTPEKRLELVAAINSNGINTYYLDTVKGRFTISRDNAKNTLYLQMSSLKSEDTALYYCARHEDYYGFAMDYWGQGTSVTVSS VL: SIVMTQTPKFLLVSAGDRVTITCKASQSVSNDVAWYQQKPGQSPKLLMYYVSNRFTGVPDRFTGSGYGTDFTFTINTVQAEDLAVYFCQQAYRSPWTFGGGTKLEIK ?
*A* 107
